All values here come from ChEMBL document CHEMBL3400015.

System: Staphylococcus epidermidis
EXPERIMENTAL_PROTOCOL: Antimicrobial activity against methicillin-resistant Staphylococcus epidermidis isolate 455/11 after 18 hrs by twofold serial broth dilution method
Format: functional
TEST_PARAMETERS: isolate 455/11, 18 h
Consider the following compounds; for each one, report its MIC.
Reply numerically in µg/mL, unit not repeated.

Ask: Record request: MIC value, item "CCCCN(CCCC)C(=O)[C@H](CC)[C@H]1CC[C@H](C)[C@H]([C@@H](C)[C@H](O)[C@H](C)C(=O)[C@H](CC)[C@H]2O[C@]3(C=C[C@@H](O)[C@]4(CC[C@@](C)([C@H]5CC[C@](O)(CC)[C@H](C)O5)O4)O3)[C@H](C)C[C@@H]2C)O1"
Reply: 16

Ask: Also "CC[C@@H](C(=O)[C@@H](C)[C@@H](O)[C@H](C)[C@@H]1O[C@@H]([C@@H](CC)C(=O)N2CCOCC2)CC[C@@H]1C)[C@H]1O[C@]2(C=C[C@@H](O)[C@]3(CC[C@@](C)([C@H]4CC[C@](O)(CC)[C@H](C)O4)O3)O2)[C@H](C)C[C@@H]1C" , if possible.
Reply: 256

Ask: Same again, this time with "CCCN(CCC)C(=O)[C@H](CC)[C@H]1CC[C@H](C)[C@H]([C@@H](C)[C@H](O)[C@H](C)C(=O)[C@H](CC)[C@H]2O[C@]3(C=C[C@@H](O)[C@]4(CC[C@@](C)([C@H]5CC[C@](O)(CC)[C@H](C)O5)O4)O3)[C@H](C)C[C@@H]2C)O1"
Reply: 8

Ask: And for "CC[C@@H](C(=O)[C@@H](C)[C@@H](O)[C@H](C)[C@@H]1O[C@@H]([C@@H](CC)C(=O)N2CCNCC2)CC[C@@H]1C)[C@H]1O[C@]2(C=C[C@@H](O)[C@]3(CC[C@@](C)([C@H]4CC[C@](O)(CC)[C@H](C)O4)O3)O2)[C@H](C)C[C@@H]1C" ?
Reply: 256

----------
Test system: Staphylococcus epidermidis
EXPERIMENTAL_PROTOCOL: Antimicrobial activity against methicillin-resistant Staphylococcus epidermidis isolate 405/10 after 18 hrs by twofold serial broth dilution method
Assay type: functional
TEST_PARAMETERS: isolate 405/10, 18 h
Assign MIC to each entry below.
Write the value in µg/mL as a bare number.

Ask: Form: Entry = "O=C(O)c1cn(C2CC2)c2cc(N3CCNCC3)c(F)cc2c1=O" | System = Staphylococcus epidermidis | MIC = ____
Reply: 2

Ask: Now consider "CC[C@@H](C(=O)[C@@H](C)[C@@H](O)[C@H](C)[C@@H]1O[C@@H]([C@@H](CC)C(=O)N2CCNCC2)CC[C@@H]1C)[C@H]1O[C@]2(C=C[C@@H](O)[C@]3(CC[C@@](C)([C@H]4CC[C@](O)(CC)[C@H](C)O4)O3)O2)[C@H](C)C[C@@H]1C" and answer again.
Reply: 64

Ask: What would you report for "CC[C@@H](C(=O)[C@@H](C)[C@@H](O)[C@H](C)[C@@H]1O[C@@H]([C@@H](CC)C(=O)N(CCOC)CCOC)CC[C@@H]1C)[C@H]1O[C@]2(C=C[C@@H](O)[C@]3(CC[C@@](C)([C@H]4CC[C@](O)(CC)[C@H](C)O4)O3)O2)[C@H](C)C[C@@H]1C" ?
Reply: 256
